Record form. Attribute: log2 fold change of degron read counts. Fill in for each entry.
testedSystem: T1, CRBN, Q96SW2;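 further: pooled lentiviral library of zinc finger degron-EGFP fusions in mCherry-positive Jurkat cells, FACS-sorted after compound exposure, with degron abundance counted by next-generation sequencing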
T1 chain: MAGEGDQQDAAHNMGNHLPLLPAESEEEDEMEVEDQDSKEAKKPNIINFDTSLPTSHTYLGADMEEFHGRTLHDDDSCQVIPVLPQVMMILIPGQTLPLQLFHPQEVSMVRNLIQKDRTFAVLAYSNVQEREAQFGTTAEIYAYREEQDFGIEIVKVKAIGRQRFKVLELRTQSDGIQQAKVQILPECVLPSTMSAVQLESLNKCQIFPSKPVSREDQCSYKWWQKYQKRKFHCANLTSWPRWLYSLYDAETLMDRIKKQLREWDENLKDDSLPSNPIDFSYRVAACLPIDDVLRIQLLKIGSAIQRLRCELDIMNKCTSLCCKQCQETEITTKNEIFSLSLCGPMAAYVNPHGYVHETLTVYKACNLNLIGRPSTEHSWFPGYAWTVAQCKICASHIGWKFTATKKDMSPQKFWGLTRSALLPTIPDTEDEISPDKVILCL
assayNotes: log2 fold change of degron read counts, EGFP-low vs EGFP+ sorted cells (limma voom), compound-induced degradation; higher = more compound-induced degradation of the degron-EGFP fusion; degrons are variants of IKZF1/3 zinc finger 2; compound dose not given here
statedConditions: Jurkat; 18 h; compound: compound 22 (5-morpholino-thalidomide)
In all, about 8,300 sequences were measured (“log2 fold change of degron read counts, EGFP-low vs EGFP+ sorted cells (limma voom), compound-induced degradation”: median about -1.1, highest 2% from about 3.2 on). Many of the other results were omitted from the sample, so the highest values are more common in it than they were.
Give bare numbers.

| sequenceContent | log2 fold change of degron read counts |
| --- | --- |
| FFCPICGAFFTQKGNLLRHIKL [46F_47F_49P_50I_52G_53A_54F_55F_67L_, Q9UKT9] | 2.52 |
| FNCNQCGRAFTQKGNLLRHIKL [46F_47N_49N_50Q_52G_53R_54A_55F_67L_, Q9UKT9] | -3 |
| FQCPVCGAQFTQKGNLLRHIKL [46F_47Q_49P_50V_52G_53A_54Q_55F_67L_, Q9UKT9] | 2.48 |
| FTCNVCGALFTQKGNLLRHIKL [46F_47T_49N_50V_52G_53A_54L_55F_67L_, Q9UKT9] | -1.98 |
| FHCPVCGAQFTQKGNLLRHIKL [46F_47H_49P_50V_52G_53A_54Q_55F_67L_, Q9UKT9] | 2.55 |
| FNCPVCGAQFTQKGNLLRHIKL [46F_47N_49P_50V_52G_53A_54Q_55F_67L_, Q9UKT9] | 1.68 |

Give log2 fold change of degron read counts for each of the items listed below.
1. FDCPVCGAQFTQKGNLLRHIKL [46F_47D_49P_50V_52G_53A_54Q_55F_67L_, Q9UKT9]
2. FRCPICGADFTQKGNLLRHIKL [46F_47R_49P_50I_52G_53A_54D_55F_67L_, Q9UKT9]

1: 0.833; 2: -0.254
